Reference source: ChEMBL document CHEMBL4257500

Below, each entry is listed alongside its reported MIC.
System: Mycobacterium tuberculosis
Assay notes: Antimycobacterial activity against Mycobacterium tuberculosis H37Rv ATCC 27294 incubated in dark for 5 days by Alamar Blue assay
Format: functional
Run conditions: H37Rv ATCC 27294, 120 h

- Mol: "O=C(Nc1nc(-c2ccccc2)cs1)c1cnc(Cl)cn1"
  MIC: "> 100 µg/mL"
- Mol: "O=C(Nc1nc(-c2ccccn2)cs1)c1cnc(Cl)cn1"
  MIC: "> 50 µg/mL"
- Mol: "O=C(Nc1nc(-c2ccccn2)cs1)c1cnccn1"
  MIC: "22.1 µM"
- Mol: "O=C(Nc1nc(-c2ccc(F)cc2)cs1)c1cncc(Cl)n1"
  MIC: "2.3 µM"
- Mol: "O=C(Nc1nc(-c2ccc(F)cc2)cs1)c1cnccn1"
  MIC: "> 12.5 µg/mL"
- Mol: "O=C(Nc1nc(-c2ccc(F)cc2)cs1)c1cnc(Cl)cn1"
  MIC: "9.4 µM"

----------
Assay notes: Solubility of compound in DMSO at 15 mg at room temperature
Type: physicochemical

- Mol: "COc1ccc(-c2csc(NC(=O)c3cnccn3)n2)cc1OC"
  solubility: "Soluble"
- Mol: "O=C(Nc1nc(-c2ccc(F)cc2)cs1)c1cncc(Cl)n1"
  solubility: "Soluble"
- Mol: "O=C(Nc1nc(-c2ccc(Cl)cc2)cs1)c1cnc(Cl)cn1"
  solubility: "Soluble"
- Mol: "COc1ccc(-c2csc(NC(=O)c3cncc(Cl)n3)n2)cc1"
  solubility: "Insoluble"
- Mol: "O=C(Nc1nc(-c2ccc(Cl)cc2)cs1)c1cncc(Cl)n1"
  solubility: "Soluble"
- Mol: "O=C(Nc1nc(-c2ccc(Cl)cc2)cs1)c1cnccn1"
  solubility: "Insoluble"

----------
Test system: Mycobacterium tuberculosis
Assay notes: Antimycobacterial activity against Mycobacterium tuberculosis H37Rv ATCC 27294 incubated in dark for 5 days by Alamar Blue assay
Assay type: functional
Run conditions: H37Rv ATCC 27294, 120 h

- Mol: "O=C(Nc1nc(-c2ccc(Cl)cc2)cs1)c1cnc(Cl)cn1"
  MIC: "> 50 µg/mL"
- Mol: "O=C(Nc1nc(-c2ccccn2)cs1)c1cncc(Cl)n1"
  MIC: "> 50 µg/mL"
- Mol: "O=C(O)c1cn(C2CC2)c2cc(N3CCNCC3)c(F)cc2c1=O"
  MIC: "0.098 to 0.195 µg/mL"
- Mol: "NNC(=O)c1ccncc1"
  MIC: "0.1 to 0.2 µg/mL"
- Mol: "O=C(Nc1nc(-c2ccc(Cl)cc2)cs1)c1cncc(Cl)n1"
  MIC: "> 12.5 µg/mL"
- Mol: "O=C(Nc1nc(-c2ccccc2)cs1)c1cnccn1"
  MIC: "> 50 µg/mL"
- Mol: "COc1ccc(-c2csc(NC(=O)c3cnc(Cl)cn3)n2)cc1"
  MIC: "4.5 µM"
- Mol: "COc1ccc(-c2csc(NC(=O)c3cncc(Cl)n3)n2)cc1OC"
  MIC: "4.1 µM"
- Mol: "O=C(Nc1nc(-c2ccccc2)cs1)c1cncc(Cl)n1"
  MIC: "> 50 µg/mL"
- Mol: "COc1ccc(-c2csc(NC(=O)c3cnccn3)n2)cc1OC"
  MIC: "> 50 µg/mL"
- Mol: "O=C(Nc1nc(-c2ccc(Cl)cc2)cs1)c1cnccn1"
  MIC: "> 12.5 µg/mL"

----------
Assay notes: Solubility of compound in DMSO at 15 mg at room temperature
Format: physicochemical

- Compound: "NNC(=O)c1ccncc1 [ISONIAZID]"
  solubility: "Soluble"
- Compound: "O=C(Nc1nc(-c2ccc(F)cc2)cs1)c1cnccn1"
  solubility: "Insoluble"
- Compound: "COc1ccc(-c2csc(NC(=O)c3cnccn3)n2)cc1"
  solubility: "Soluble"
- Compound: "O=C(Nc1nc(-c2ccc(F)cc2)cs1)c1cnc(Cl)cn1"
  solubility: "Soluble"
- Compound: "O=C(Nc1nc(-c2ccccc2)cs1)c1cnccn1"
  solubility: "Soluble"
- Compound: "COc1ccc(-c2csc(NC(=O)c3cncc(Cl)n3)n2)cc1OC"
  solubility: "Insoluble"
- Compound: "COc1ccc(-c2csc(NC(=O)c3cnc(Cl)cn3)n2)cc1OC"
  solubility: "Insoluble"

----------
Parameter: MIC. Scope: all listed entries.
System: Mycobacterium tuberculosis
Assay notes: Antimycobacterial activity against Mycobacterium tuberculosis H37Rv ATCC 27294 incubated in dark for 5 days by Alamar Blue assay
Format: functional
Run conditions: H37Rv ATCC 27294, 120 h
Measured metric: MIC

- Molecule: "CO[C@H]1/C=C/O[C@@]2(C)Oc3c(C)c(O)c4c(O)c(c(/C=N/N5CCN(C)CC5)c(O)c4c3C2=O)NC(=O)/C(C)=C\\C=C\\[C@H](C)[C@H](O)[C@@H](C)[C@@H](O)[C@@H](C)[C@H](OC(C)=O)[C@@H]1C [RIFAMPIN]"
  Observed value: "0.78 to 1.56 µg/mL"
- Molecule: "COc1ccc(-c2csc(NC(=O)c3cncc(Cl)n3)n2)cc1"
  Observed value: "4.5 µM"
- Molecule: "COc1ccc(-c2csc(NC(=O)c3cnc(Cl)cn3)n2)cc1OC"
  Observed value: "> 12.5 µg/mL"
- Molecule: "COc1ccc(-c2csc(NC(=O)c3cnccn3)n2)cc1"
  Observed value: "> 100 µg/mL"
